B1: Caulobacter ParB omega fusion; a variant is named by its letters at X, in order, B8GW30 (parent)
chain: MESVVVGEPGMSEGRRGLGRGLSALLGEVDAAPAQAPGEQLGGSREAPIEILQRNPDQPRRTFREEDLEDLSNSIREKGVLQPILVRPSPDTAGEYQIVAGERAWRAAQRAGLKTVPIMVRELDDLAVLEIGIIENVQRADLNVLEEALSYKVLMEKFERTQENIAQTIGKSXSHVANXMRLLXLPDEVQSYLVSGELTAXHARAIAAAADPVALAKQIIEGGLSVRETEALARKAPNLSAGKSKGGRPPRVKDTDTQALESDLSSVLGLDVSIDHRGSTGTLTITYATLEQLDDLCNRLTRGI

Variants of: B1
Experiment: one-hybrid fitness for binding NBS DNA (the Noc-binding site; scaled: cognate 1, non-cognate 0); higher = stronger binding
Settings: with NBS DNA site
The full ranking holds about 81,000 sequences; the median of “one-hybrid fitness for binding NBS DNA” is about -0.1, and the highest 2% start at about 0.36. The entries come from a sample that favours the highest values as a whole.
OBSERVABLE: one-hybrid fitness for binding NBS DNA

INSERT INTO measurements (variant_annotation, observable, reported) VALUES
  ('RSFR', 'one-hybrid fitness for binding NBS DNA', 0.28),
  ('RMKT', 'one-hybrid fitness for binding NBS DNA', 0.606),
  ('VRKR', 'one-hybrid fitness for binding NBS DNA', 0.62),
  ('PNLF', 'one-hybrid fitness for binding NBS DNA', '≤ 0.2'),
  ('HQWA', 'one-hybrid fitness for binding NBS DNA', '≤ 0.2'),
  ('EIGT', 'one-hybrid fitness for binding NBS DNA', '≤ 0.2'),
  ('RVKH', 'one-hybrid fitness for binding NBS DNA', 0.321),
  ('VRMT', 'one-hybrid fitness for binding NBS DNA', '≤ 0.2'),
  ('QTPD', 'one-hybrid fitness for binding NBS DNA', '≤ 0.2'),
  ('QTLD', 'one-hybrid fitness for binding NBS DNA', '≤ 0.2'),
  ('RCKR', 'one-hybrid fitness for binding NBS DNA', 0.76),
  ('GLNS', 'one-hybrid fitness for binding NBS DNA', '≤ 0.2'),
  ('ACMF', 'one-hybrid fitness for binding NBS DNA', '≤ 0.2'),
  ('RVKN', 'one-hybrid fitness for binding NBS DNA', 0.203),
  ('QYSD', 'one-hybrid fitness for binding NBS DNA', '≤ 0.2'),
  ('PVGL', 'one-hybrid fitness for binding NBS DNA', '≤ 0.2'),
  ('QYNN', 'one-hybrid fitness for binding NBS DNA', '≤ 0.2'),
  ('LHQS', 'one-hybrid fitness for binding NBS DNA', '≤ 0.2'),
  ('RFKT', 'one-hybrid fitness for binding NBS DNA', 0.512),
  ('RSAH', 'one-hybrid fitness for binding NBS DNA', '≤ 0.2'),
  ('RHKR', 'one-hybrid fitness for binding NBS DNA', 0.701),
  ('ESSI', 'one-hybrid fitness for binding NBS DNA', '≤ 0.2'),
  ('RVKT', 'one-hybrid fitness for binding NBS DNA', 0.652),
  ('HDPT', 'one-hybrid fitness for binding NBS DNA', '≤ 0.2'),
  ('RPPM', 'one-hybrid fitness for binding NBS DNA', '≤ 0.2'),
  ('QPPR', 'one-hybrid fitness for binding NBS DNA', '≤ 0.2'),
  ('QYSN', 'one-hybrid fitness for binding NBS DNA', '≤ 0.2'),
  ('QQVW', 'one-hybrid fitness for binding NBS DNA', '≤ 0.2'),
  ('RMKM', 'one-hybrid fitness for binding NBS DNA', 0.216),
  ('RFAR', 'one-hybrid fitness for binding NBS DNA', 0.242),
  ('RYAA', 'one-hybrid fitness for binding NBS DNA', '≤ 0.2'),
  ('EMRY', 'one-hybrid fitness for binding NBS DNA', '≤ 0.2'),
  ('RCAR', 'one-hybrid fitness for binding NBS DNA', 0.529),
  ('QTLP', 'one-hybrid fitness for binding NBS DNA', '≤ 0.2'),
  ('QTIR', 'one-hybrid fitness for binding NBS DNA', 0.499),
  ('QYSR', 'one-hybrid fitness for binding NBS DNA', 0.499),
  ('VRYR', 'one-hybrid fitness for binding NBS DNA', 0.239),
  ('PIPI', 'one-hybrid fitness for binding NBS DNA', '≤ 0.2'),
  ('RVKR', 'one-hybrid fitness for binding NBS DNA', 0.665),
  ('QYGN', 'one-hybrid fitness for binding NBS DNA', '≤ 0.2'),
  ('RKFR', 'one-hybrid fitness for binding NBS DNA', 0.443),
  ('ALAT', 'one-hybrid fitness for binding NBS DNA', '≤ 0.2'),
  ('ETGL', 'one-hybrid fitness for binding NBS DNA', '≤ 0.2'),
  ('VAWT', 'one-hybrid fitness for binding NBS DNA', '≤ 0.2'),
  ('RVKS', 'one-hybrid fitness for binding NBS DNA', 0.578),
  ('RKAR', 'one-hybrid fitness for binding NBS DNA', 0.597),
  ('CLQI', 'one-hybrid fitness for binding NBS DNA', '≤ 0.2'),
  ('TKWD', 'one-hybrid fitness for binding NBS DNA', '≤ 0.2'),
  ('DTEY', 'one-hybrid fitness for binding NBS DNA', '≤ 0.2'),
  ('RKAN', 'one-hybrid fitness for binding NBS DNA', '≤ 0.2'),
  ('SIAC', 'one-hybrid fitness for binding NBS DNA', '≤ 0.2'),
  ('RAVT', 'one-hybrid fitness for binding NBS DNA', 0.237),
  ('KCKT', 'one-hybrid fitness for binding NBS DNA', 0.212),
  ('PWLV', 'one-hybrid fitness for binding NBS DNA', '≤ 0.2'),
  ('LPSK', 'one-hybrid fitness for binding NBS DNA', '≤ 0.2'),
  ('RAKN', 'one-hybrid fitness for binding NBS DNA', '≤ 0.2'),
  ('QYNH', 'one-hybrid fitness for binding NBS DNA', 0.246),
  ('MMNR', 'one-hybrid fitness for binding NBS DNA', '≤ 0.2'),
  ('QLLN', 'one-hybrid fitness for binding NBS DNA', '≤ 0.2'),
  ('RHVR', 'one-hybrid fitness for binding NBS DNA', 0.248),
  ('RMVT', 'one-hybrid fitness for binding NBS DNA', 0.296),
  ('RHKH', 'one-hybrid fitness for binding NBS DNA', 0.326),
  ('VCNR', 'one-hybrid fitness for binding NBS DNA', '≤ 0.2'),
  ('PCVV', 'one-hybrid fitness for binding NBS DNA', '≤ 0.2'),
  ('RVKD', 'one-hybrid fitness for binding NBS DNA', '≤ 0.2'),
  ('QSPR', 'one-hybrid fitness for binding NBS DNA', 0.27),
  ('RPKR', 'one-hybrid fitness for binding NBS DNA', '≤ 0.2'),
  ('KGLV', 'one-hybrid fitness for binding NBS DNA', '≤ 0.2'),
  ('NFKT', 'one-hybrid fitness for binding NBS DNA', '≤ 0.2'),
  ('RKFK', 'one-hybrid fitness for binding NBS DNA', '≤ 0.2'),
  ('SKPR', 'one-hybrid fitness for binding NBS DNA', '≤ 0.2'),
  ('ISCK', 'one-hybrid fitness for binding NBS DNA', '≤ 0.2'),
  ('ENTM', 'one-hybrid fitness for binding NBS DNA', '≤ 0.2'),
  ('QTPR', 'one-hybrid fitness for binding NBS DNA', 0.42),
  ('QQDW', 'one-hybrid fitness for binding NBS DNA', '≤ 0.2'),
  ('DERT', 'one-hybrid fitness for binding NBS DNA', '≤ 0.2'),
  ('KPKT', 'one-hybrid fitness for binding NBS DNA', '≤ 0.2'),
  ('RSKT', 'one-hybrid fitness for binding NBS DNA', 0.618),
  ('VRRR', 'one-hybrid fitness for binding NBS DNA', 0.624),
  ('KCVT', 'one-hybrid fitness for binding NBS DNA', '≤ 0.2'),
  ('KPVT', 'one-hybrid fitness for binding NBS DNA', '≤ 0.2'),
  ('RSAR', 'one-hybrid fitness for binding NBS DNA', 0.438),
  ('AMPP', 'one-hybrid fitness for binding NBS DNA', '≤ 0.2'),
  ('QYGS', 'one-hybrid fitness for binding NBS DNA', 0.377),
  ('QPCS', 'one-hybrid fitness for binding NBS DNA', '≤ 0.2'),
  ('VCRR', 'one-hybrid fitness for binding NBS DNA', 0.246),
  ('QYNS', 'one-hybrid fitness for binding NBS DNA', 0.437),
  ('KRKT', 'one-hybrid fitness for binding NBS DNA', 0.66),
  ('DLQG', 'one-hybrid fitness for binding NBS DNA', '≤ 0.2'),
  ('VRVR', 'one-hybrid fitness for binding NBS DNA', '≤ 0.2');
